The origin of these recorded values is patent US20220193132A1.

- target-or-system: T1, EGFRvIII amino acid residues 15 to 37 with Glu28 to Ala mutation (human)
- T1 construct: mutation is already in the entry
- T1 peptide: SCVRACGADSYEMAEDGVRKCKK
- test-description: yeast display flow cytometry, Myc-normalized;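 note: Anti-EGFRvIII monoclonal antibodies tested by flow cytometry on yeast displaying alanine-substituted fragments, two-color indirect fluorescence with anti-Myc signal tracking fusion protein expression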
recorded-endpoint: % of binding vs wild-type fragment 15-37 (%)

binder: F263-5D8 (antibody, V domains shown, Mouse hybridoma mAb) VH: EVQLQQSGPDLVKPGSSVKISCKASGYTFTDYNIDWVKQSHGKSLEWIGTINPNYGGTSYNQKFKGKATLTVDKSSSTAYMELRSLTSEDSAVYYCARGYDYDLWFAYWGQGTLVTVSA VL: EIVLTQSPVFMAASPGEKVTITCSVSSSISSSNLHWYQQKSETSPKPWIYGTSNLASGVPVRFSGSGSGTSYSLTISSMEAEDAATYYCQQWSSYPLTFGAGTKLELK
measurement-units: %
quantitative-result: 81.6
--
binder: F265-9C9 (antibody, V domains shown, Mouse hybridoma mAb) VH: QVQLQQPGAELVKPGASVKLSCKASGYTFTSYWMHWVKQRPGQDLEWIGEIDPSDSYTNYNQKFKGKATLTVDKSSSTAYIQLSSLTSEDSALYYCARFDFAYWGQGTLVTVSA VL: EIVLTQSPTLMAASPGEKVTITCSVSSSISSSNLHWYQQKSETSPKPWIYDTSNLASGVPIRFSGSGSGTSYSLTISSVEAEDAATYYCQQWSSYPLTFGSGTKLEIK
measurement-units: %
quantitative-result: 87.1
--
binder: F263-4E11 (antibody, V domains shown, Mouse hybridoma mAb) VH: DVQLQESGPGLVKPSQSLSLTCTVTGYSITSDYAWNWIRQFPGNKLEWMGYIGYNGRTSYNPSLKSRISITRDTSKNQFFLQLNYVTTEDTATFYCARLGRGFAYWGQGTLVTVSA VL: DILMTQSPSSMSVSLGDTVSITCHASQGINSNIGWLLQKPGKSFKGLIYHGTNLEDGVPSRFSGSGSGTDYSLTISSLESEDFADYYCVQYAQFPYTFGGGTKLEIK
measurement-units: %
quantitative-result: 90.9
